measurement.target: human glucagon receptor (human, UniProt P47871 26-477)
assay.protocol: cell-based or functional assay
Starred links: 1 amine or outer side, 2 acyl side, 3 side chain; linkers in the order of their positions; H or OH if unused. Non-standard residues stand in square brackets, D forms with d. No end group written: not given here. *: point of attachment. NMe2F‑APPA = N-methyl-2-amino-5-(2-fluorophenyl)pentanoic acid, CN([C@@H](CCCc1ccccc1F)C(=O)[*:2])[*:1]; AMCB = 2-amino-5-(4-chloro-2-methylphenyl)pentanoic acid, Cc1cc(Cl)ccc1CCC[C@H](N[*:1])C(=O)[*:2]; Bip(2'-Et-4'-OMe) = CCc1cc(OC)ccc1-c1ccc(C[C@H](N)C(=O)O)cc1; Leu(5,5,5,5',5',5'-F6) = N[C@@H](CC(C(F)(F)F)C(F)(F)F)C(=O)O; Nva(5-(3,5-Me2Ph)) = Cc1cc(C)cc(CCC[C@H](N)C(=O)O)c1; αMePhe(2-F) = C[C@](N)(Cc1ccccc1F)C(=O)O; NMeBip(OMe) = N-methylated Bip(OMe); hhPhe = N[C@@H](CCCc1ccccc1)C(=O)O; NMeD = CN[C@@H](CC(=O)O)C(=O)O; aThr = C[C@H](O)[C@H](N)C(=O)O; CNB = not defined here; Aib = CC(C)(N)C(=O)O; Moc = COC(=O)*
measurement.type: inhibition of cAMP production, 1 nM (pmol/ml/µg prt)

Check out these entries, answers already filled in.
>  <binder>
H[Aib][CNB]GTFTSD[Bip(2'-Et-4'-OMe)][Nva(5-(3,5-Me2Ph))] (reading uncertain) [Seq. ID. No. 30: H-Aib-(CNB)-GTFTSD-Bip(OMe)-(ADMP)]

>  <measurement.type>
inhibition of cAMP production, 1 nM

>  <observed.measurement>
22

$$$$
>  <binder>
H[Aib][CNB]G[aThr][αMePhe(2-F)][aThr]SD[Bip(2'-Et-4'-OMe)][hhPhe] (reading uncertain; also: reduced (CH2) bonds between 9-10 and 10-11) [Seq. ID. No. 202: H-Aib-(CNB)-G-T(allo)-(α-Me-2F-Phe)-T(allo)-SD-(CH2)-Bip(OMe)-(CH2)-(APPA)]

>  <measurement.type>
inhibition of cAMP production, 1 nM

>  <observed.measurement>
9

$$$$
>  <binder>
H[Aib][Leu(5,5,5,5',5',5'-F6)]GT[αMePhe(2-F)]TSD[Bip(2'-Et-4'-OMe)][AMCB] [Seq. ID. No. 237: H-Aib-(Hfl)-GT-(α-Me-2F-Phe)-TSD-Bip(OMe)-(AMCB)]

>  <measurement.type>
inhibition of cAMP production, 1 nM

>  <observed.measurement>
21

$$$$
>  <binder>
H[Aib][CNB]G[aThr][αMePhe(2-F)][aThr]SD[Bip(2'-Et-4'-OMe)][hhPhe] (reading uncertain; also: thioamide bonds between residues 9-10 and 10-11) [Seq. ID. No. 178: H-Aib-(CNB)-G-T(allo)-(α-Me-2F-Phe)-T(allo)-SD-(C═S)-Bip(OMe)-(C═S)-(APPA)]

>  <measurement.type>
inhibition of cAMP production, 1 nM

>  <observed.measurement>
0

$$$$
>  <binder>
H[Aib][CNB]G[aThr][αMePhe(2-F)][aThr]SD[Bip(2'-Et-4'-OMe)][hhPhe] (reading uncertain; also: thioamide bond between residues 10 and 11) [Seq. ID. No. 166: H-Aib-(CNB)-G-T(allo)-(α-Me-2F-Phe)-T(allo)-SD-Bip(OMe)-(C═S)-(APPA)]

>  <measurement.type>
inhibition of cAMP production, 1 nM

>  <observed.measurement>
19

$$$$

(A) H[Aib][CNB]G[aThr][αMePhe(2-F)][aThr]S[NMeD][NMeBip(OMe)][NMe2F‑APPA] (reading uncertain)
(B) Moc-H[Aib]QGT[αMePhe(2-F)]TSD[Bip(2'-Et-4'-OMe)][hhPhe] (also: reduced (CH2) bonds between 9-10 and 10-11) [Seq. ID. No. 194: CH3OCO-H-Aib-QGT-(α-Me-2F-Phe)-TSD-(CH2)-Bip(OMe)-(CH2)-(APPA)]
// compare measured inhibition of cAMP production, 1 nM between A and B ; output the lower one State the label of the item chosen.
A
